Give measured binding signal (normalized ELISA) for each item. Keep answers brief.
# output: bare number, no unit

Send back ZFP8196 (host, center linker TGEKP) (artificial) binding signal (normalized ELISA) of TTAGATAAACTGACCAAAAGGCTATC (double strand) [8196 target gap AC] only. 0

Report value: binding signal (normalized ELISA), system: ZFP8196 (host, center linker TGEKP) (artificial), sequence: TTAGATAAACTGTGCAAAAGGCTATC (double strand) [8196 target gap TG] 0

Quote ZFP8196 (host, center linker TGEKP) (artificial) binding signal (normalized ELISA) for entry TTAGATAAACTGACAAAAGGCTATC (double strand) [8196 target gap A] . 0.01

Supply binding signal (normalized ELISA) measured with ZFP8196 (host, center linker TGEKP) (artificial) for TTAGATAAACTGCCAAAAGGCTATC (double strand) [8196 target gap C] . 0.01

# return binding signal (normalized ELISA) of TTAGATAAACTGGCAAAAGGCTATC (double strand) [8196 target gap G] (system: ZFP8196 (host, center linker TGEKP) (artificial)) 0.03

* * *

recordedMetric: binding signal (normalized ELISA)
Write no unit; give the number alone.

Give binding signal (normalized ELISA) only, for TTAGCCACTCTGCTGGAAGTGTATC (double strand) [7263 target gap C] , using ZFP7263 linker TPNRCPPTKP (artificial) data. 1.13

Tell me its binding signal (normalized ELISA) on ZFP7263 linker TPNRCPPTKP (artificial): TTAGCCACTCTGATGGAAGTGTATC (double strand) [7263 target gap A] 1.68

Using ZFP7263 linker TPNRCPPTKP (artificial) as the test system, report measured binding signal (normalized ELISA) of TTAGCCACTCTGACTGGAAGTGTATC (double strand) [7263 target gap AC] . 0.03

State the measured binding signal (normalized ELISA) (ZFP7263 linker TPNRCPPTKP (artificial)) of TTAGCCACTCTGATTGGAAGTGTATC (double strand) [7263 target gap AT] 0.02

Would you please give the reported binding signal (normalized ELISA) of TTAGCCACTCTGGTGGAAGTGTATC (double strand) [7263 target gap G] with ZFP7263 linker TPNRCPPTKP (artificial)? 2.62

Find binding signal (normalized ELISA) for TTAGCCACTCTGCTTGGAAGTGTATC (double strand) [7263 target gap CT] on ZFP7263 linker TPNRCPPTKP (artificial) and write it down. 0.01

* * *

Test system: ZFP8196 linker TGYSIPRPKP (artificial)
// NB: equality with 0.01 counts as NOT MET; only binding signal (normalized ELISA) strictly below is MET

Strictly below 0.01 in binding signal (normalized ELISA)? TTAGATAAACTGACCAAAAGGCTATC (double strand) [8196 target gap AC] MET

Decide: binding signal (normalized ELISA) of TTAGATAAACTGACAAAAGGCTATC (double strand) [8196 target gap A] strictly below 0.01? NOT MET

Could you please tell me whether binding signal (normalized ELISA) recorded for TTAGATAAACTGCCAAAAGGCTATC (double strand) [8196 target gap C] is less than 0.01? NOT MET

Quick check: does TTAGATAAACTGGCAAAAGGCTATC (double strand) [8196 target gap G] have binding signal (normalized ELISA) under 0.01? NOT MET

Hello, the source for this data is patent US20110287512, in case you need it.
